Quick list: Ki per entry.
target: CCKB receptor (Mus musculus, UniProt P56481); construct: The cortex was dissected, weighed and homogenised in 40ml ice-cold buffer; tissue Charles River (supplier of the CD1 mice); host or cells: cerebral cortex membranes of male CD1 mice; assay: CCKB receptor radioligand binding assay in mouse cortical membranes ([125I]-CCK8S); conditions: [125I]-CCK8S 200 pM, 150 min at 21±3°, read-out: CCKB pKi (converted)
Sequence (P56481 whole entry): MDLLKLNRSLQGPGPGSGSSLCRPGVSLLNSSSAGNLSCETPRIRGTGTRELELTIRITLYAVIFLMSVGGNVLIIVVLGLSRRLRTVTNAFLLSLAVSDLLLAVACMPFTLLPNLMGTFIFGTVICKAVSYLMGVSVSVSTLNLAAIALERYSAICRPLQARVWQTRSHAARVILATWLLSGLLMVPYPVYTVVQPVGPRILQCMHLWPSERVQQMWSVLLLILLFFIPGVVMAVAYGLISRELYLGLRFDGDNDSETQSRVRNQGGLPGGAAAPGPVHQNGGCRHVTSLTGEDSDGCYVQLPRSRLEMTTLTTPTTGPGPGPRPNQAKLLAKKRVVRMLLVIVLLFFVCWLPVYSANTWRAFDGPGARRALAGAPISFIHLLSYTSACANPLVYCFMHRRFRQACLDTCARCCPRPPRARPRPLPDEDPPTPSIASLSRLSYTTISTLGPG
Response body: numeric value in nM, unit text excluded.

QUERY: What measured Ki goes with O=C(O)c1cc(NC(=O)[C@H](Cc2c[nH]cn2)NC(=O)c2cc3[nH]cnc3cc2C(=O)NCC23CC4CC(CC(C4)C2)C3)cc(C(=O)O)c1 ?
RESULT: 316

QUERY: Now consider Cc1nc2cc(C(=O)NCC34CC5CC(CC(C5)C3)C4)c(C(=O)N[C@@H](Cc3ccccc3)C(=O)Nc3cc(C(=O)O)cc(C(=O)O)c3)cc2[nH]1 .
RESULT: 1580

QUERY: Now consider C[C@H](NC(=O)c1cc2[nH]ccc2cc1C(=O)NCC12CC3CC(CC(C3)C1)C2)C(=O)Nc1cc(C(=O)O)cc(C(=O)O)c1 .
RESULT: 631

QUERY: Now consider CCCCc1nc2cc(C(=O)NCC34CC5CC(CC(C5)C3)C4)c(C(=O)N[C@@H](Cc3ccccc3)C(=O)Nc3cc(C(=O)O)cc(C(=O)O)c3)cc2[nH]1 .
RESULT: 1000

QUERY: Now consider C[C@H](NC(=O)c1cc2[nH]cnc2cc1C(=O)NCC12CC3CC(CC(C3)C1)C2)C(=O)Nc1cc(C(=O)O)cc(C(=O)O)c1 .
RESULT: 398

Okay, now this compound:
QUERY: What measured Ki goes with CN(CC12CC3CC(CC(C3)C1)C2)C(=O)c1cc2ccccc2cc1C(=O)N1CCC[C@@H]1C(=O)NCC(=O)O ?
RESULT: 1000
